- Target: Progesterone receptor (Homo sapiens) (UniProt P06401)
- Sequence (P06401 whole entry, looked up): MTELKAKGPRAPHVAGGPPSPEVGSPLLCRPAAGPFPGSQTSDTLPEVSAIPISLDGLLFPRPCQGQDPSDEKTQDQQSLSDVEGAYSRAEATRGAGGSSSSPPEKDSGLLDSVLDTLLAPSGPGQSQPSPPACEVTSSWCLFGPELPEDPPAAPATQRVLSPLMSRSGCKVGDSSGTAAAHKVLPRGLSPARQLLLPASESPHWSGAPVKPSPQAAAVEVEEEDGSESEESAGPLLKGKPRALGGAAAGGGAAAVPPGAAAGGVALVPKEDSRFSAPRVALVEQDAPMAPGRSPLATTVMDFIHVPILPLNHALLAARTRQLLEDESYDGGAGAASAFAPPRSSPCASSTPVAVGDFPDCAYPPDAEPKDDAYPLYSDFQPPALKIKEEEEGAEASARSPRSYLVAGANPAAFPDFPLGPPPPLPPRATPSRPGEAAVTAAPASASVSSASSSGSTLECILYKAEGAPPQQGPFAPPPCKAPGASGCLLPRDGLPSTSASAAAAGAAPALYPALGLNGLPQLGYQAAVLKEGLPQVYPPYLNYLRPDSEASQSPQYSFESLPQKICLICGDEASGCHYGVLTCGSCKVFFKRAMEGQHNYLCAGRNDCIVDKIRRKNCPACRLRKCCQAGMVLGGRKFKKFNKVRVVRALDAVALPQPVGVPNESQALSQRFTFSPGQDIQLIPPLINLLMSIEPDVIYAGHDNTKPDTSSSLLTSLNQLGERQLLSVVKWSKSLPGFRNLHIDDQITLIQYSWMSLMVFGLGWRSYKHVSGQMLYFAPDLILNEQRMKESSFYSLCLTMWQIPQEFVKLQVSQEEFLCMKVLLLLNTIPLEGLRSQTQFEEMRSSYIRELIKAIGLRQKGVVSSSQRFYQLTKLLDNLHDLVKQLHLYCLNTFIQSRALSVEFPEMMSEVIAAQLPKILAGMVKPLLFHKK
- Assay Notes: qHTS assay to identify small molecule agonists of the progesterone receptor (PR) signaling pathway (AID 1346784); note: % is set by controls: 0 for no effect and ±100 for the full control effect; nearly all actives have a fitted effect of over 30% in size
- Protocol Conditions: PR-UAS-bla HEK293T, beta-lactamase FRET ratio, 16 h; series mostly up to 92.4 µM
Results filed as inconclusive are left out. Active and inactive are the calls of the source. Calls come from the whole dose curve.
Quantity Measured: activation

molecule=N[C@@H](CSSC[C@H](N)C(=O)O)C(=O)O quantity_measured=activation measured="-4.21% [at 0.349 µM] (inactive)"
molecule=c1ccc2c(c1)CCC2 quantity_measured=activation measured=inactive
molecule=O=Nc1ccc(NO)cc1 quantity_measured=activation measured=inactive
molecule=CN(C)CCCN1c2ccccc2Sc2ccc(C(F)(F)F)cc21 quantity_measured=activation measured=inactive
molecule=CCOCN(C(=O)CS(=O)(=O)O)c1c(C)cccc1CC quantity_measured=activation measured=inactive
molecule=CC(=O)O[C@@H]1C[C@@H]2CC[C@@]1(C)C2(C)C quantity_measured=activation measured=inactive
molecule="O=C1OC(OC(=O)c2cccnc2Nc2cccc(C(F)(F)F)c2)c2ccccc21 (stereo not drawn)" quantity_measured=activation measured=inactive
molecule=CCN(CC)CCOC(=O)C1(C2CCCCC2)CCCCC1 quantity_measured=activation measured=inactive
molecule=CC(=O)Oc1ccc(C2(c3ccc(OC(C)=O)cc3)C(=O)Nc3ccccc32)cc1 quantity_measured=activation measured=inactive
molecule="COC(=O)CC(C)CCC=C(C)C (stereo not drawn)" quantity_measured=activation measured=inactive
molecule=CCC1CCCCC1 quantity_measured=activation measured=inactive
molecule=OCCCCl quantity_measured=activation measured=inactive
molecule=CCC(C)(C)c1cc(O)c(C(C)(C)CC)cc1O quantity_measured=activation measured=inactive
molecule="CC1CCCNC1 (stereo not drawn)" quantity_measured=activation measured=inactive
molecule=CC1=CCC(=O)O1 quantity_measured=activation measured=inactive
molecule="CC(CN(C)C)CN1c2ccccc2CCc2ccccc21 (stereo not drawn)" quantity_measured=activation measured=inactive
molecule=CC(C)(c1cc(Br)c(O)c(Br)c1)c1cc(Br)c(O)c(Br)c1 quantity_measured=activation measured=inactive
molecule=Cc1c(C(=O)O)cccc1[N+](=O)[O-] quantity_measured=activation measured=inactive
molecule=S=P(N1CC1)(N1CC1)N1CC1 quantity_measured=activation measured=inactive
molecule=CCCCCCS quantity_measured=activation measured=inactive
molecule="CC(C)=CC1CC(C)CCO1 (stereo not drawn)" quantity_measured=activation measured=inactive
molecule=C=CC/C=C/C/C=C/C/C=C/C quantity_measured=activation measured=inactive
molecule=Cc1cc(=O)[nH]c(=O)[nH]1 quantity_measured=activation measured=inactive
molecule=CCCCCCCC/C=C\CCCCCCCC(=O)NCc1ccc(O)c(OC)c1 quantity_measured=activation measured=inactive
molecule=O=c1cccc[nH]1 quantity_measured=activation measured=inactive
molecule=CCCC(=O)OCC(COC(=O)CCC)OC(=O)CCC quantity_measured=activation measured=inactive
molecule=Cc1cncc(C)c1 quantity_measured=activation measured=inactive
molecule=Clc1cccnc1 quantity_measured=activation measured=inactive
molecule=CCOC(=O)CN quantity_measured=activation measured=inactive
molecule=CCCCN(C)C quantity_measured=activation measured=inactive
molecule=C/C=C/C(=O)C1=C(C)CCCC1(C)C quantity_measured=activation measured=inactive
molecule="CCCCN(CCCC)CCC(O)c1cc2c(Cl)cc(Cl)cc2c2cc(C(F)(F)F)ccc12 (stereo not drawn)" quantity_measured=activation measured=inactive
molecule=SCCCCCCCCS quantity_measured=activation measured=inactive
molecule=CCc1ccc(C)nc1 quantity_measured=activation measured=inactive
molecule=CCc1cccc(CC)c1N(COC)C(=O)CS(=O)(=O)O quantity_measured=activation measured=inactive
molecule=CC(C)CCOCCC(C)C quantity_measured=activation measured=inactive
molecule=COc1ccc2sc(C(=O)Nc3nnn[nH]3)c(OC(C)C)c2c1 quantity_measured=activation measured=inactive
molecule=O=C(Nc1ccc(Cl)c(Cl)c1)c1cc(Cl)cc(Cl)c1O quantity_measured=activation measured=inactive
molecule=CCOC(OCC)C(=O)c1ccccc1 quantity_measured=activation measured=inactive
molecule=Cn1cnc2ncnc(N)c21 quantity_measured=activation measured=inactive
molecule=O=C[C@H](O)[C@H](O)[C@H](O)CO quantity_measured=activation measured=inactive
molecule=CCCCCCCC/C=C/CCCOC(C)=O quantity_measured=activation measured=inactive
molecule="CCCC(CC)CCCCCCCN (stereo not drawn)" quantity_measured=activation measured=inactive
molecule=CCCCCCCCCCCCCCNCCO quantity_measured=activation measured=inactive
molecule=Cc1cccc(C)n1 quantity_measured=activation measured=inactive
molecule=[O]=[Zr] quantity_measured=activation measured=inactive
molecule=CO[C@H]1C=CO[C@@]2(C)Oc3c(C)c(O)c4c(O)c(cc(O)c4c3C2=O)NC(=O)/C(C)=C\C=C/[C@H](C)[C@H](O)[C@@H](C)[C@@H](O)[C@@H](C)[C@H](OC(C)=O)[C@@H]1C quantity_measured=activation measured=inactive
molecule="CCC(=O)CC(C)CC (stereo not drawn)" quantity_measured=activation measured="-0.264% [at 0.349 µM] (inactive)"
molecule="CCN(CC)CCOc1ccc(C(O)(Cc2ccc(Cl)cc2)c2ccc(C)cc2)cc1 (stereo not drawn)" quantity_measured=activation measured=inactive
molecule=c1cc2c3c(c1)ccc1cccc(c13)C2 quantity_measured=activation measured=inactive
molecule=CC(C)c1cccc(C(C)C)c1N1C(=O)c2ccc(O)cc2C1=O quantity_measured=activation measured=inactive
molecule=Cn1cccc1 quantity_measured=activation measured=inactive
molecule=CCc1c(C(=O)O)c(=O)cnn1-c1ccc(Cl)cc1 quantity_measured=activation measured=inactive
molecule=CCO[Si](C)(C)OCC quantity_measured=activation measured=inactive
molecule=Cc1nc(Nc2ncc(C(=O)Nc3c(C)cccc3Cl)s2)cc(N2CCN(CCO)CC2)n1 quantity_measured=activation measured=inactive
molecule=CCCCOc1ccc(C(=O)CCN2CCCCC2)cc1 quantity_measured=activation measured=inactive
molecule=CCN(CC)CCCN(c1ccccc1)C1Cc2ccccc2C1 quantity_measured=activation measured=inactive
molecule="CC(C)=CCCC(C)O (stereo not drawn)" quantity_measured=activation measured=inactive

* * *

- Target: Estrogen receptor beta (Homo sapiens)
- Assay Notes: qHTS assay to identify small molecule antagonists of the estrogen receptor beta (ER-beta) signaling pathway (AID 1259378); note: potency is the fitted concentration of half-maximal effect
- Protocol Conditions: ER-beta-UAS-bla HEK293T, beta-lactamase FRET ratio, 16 h; series mostly up to 92.4 µM
Records with an inconclusive call do not appear. Activity calls are given as the source filed them. The call rests on the fitted dose curve; in most records, active means well fitted inhibition curve with a large enough effect in the signal ratio in the repeat runs (not every such curve was filed as active); inconclusive means weak or mixed curves, or effect the other way; inactive means no such curve, though single readings can be large or run the other way; the % refers to the signal ratio.
Quantity Measured: Potency

compound=C=CC(=C)CCC=C(C)C measured=inactive
compound="COc1ccccc1OCCNCC(O)COc1cccc2[nH]c3ccccc3c12 (stereo not given)" measured="7.5 µM (active)"
compound=Oc1ccc(-c2ccccc2)c(Cl)c1 measured="21.7 µM (active)"
compound="CC(C)=CCCC(C)O (stereo not given)" measured=inactive
compound=CCOC(=O)N1CCC(=C2c3ccc(Cl)cc3CCc3cccnc32)CC1 measured="15.4 µM (active)"
compound=OCCCS measured=inactive
compound=COCC(=O)O[C@]1(CCN(C)CCCc2nc3ccccc3[nH]2)CCc2cc(F)ccc2[C@@H]1C(C)C measured="11.9 µM (active)"
compound=Cc1cc(=O)[nH]c(=O)[nH]1 measured=inactive
compound=CCCCCCS measured=inactive
compound=Cc1cccc(C)n1 measured=inactive
compound=CC(C)C(=O)OCc1ccccc1 measured=inactive
compound=CC(C)CCOCCC(C)C measured=inactive
compound=CCCCCCCC/C=C/CCCOC(C)=O measured=inactive
compound="CC(C)=CCCC(C)CCOC(=O)C(C)C (stereo not given)" measured=inactive
compound="CC(NCCC(c1ccccc1)c1ccccc1)c1ccccc1 (stereo not given)" measured="26.6 µM (active)"

* * *

- Assay Notes: qHTS assay to identify small molecule antagonists of the retinoic acid receptor (RAR) signaling pathway (AID 1159552; note: % is set by controls: 0 for no effect and ±100 for the full control effect; nearly all actives have a fitted effect of over 50% in size)
- Protocol Conditions: C3RL4 RARE luciferase reporter, retinol-stimulated, 6 h; series mostly up to 92.4 µM
Inconclusive results are not listed. Active and inactive are the calls of the source. The call rests on the fitted dose curve; in most records, active means well fitted inhibition curve with a large enough effect in the repeat runs; inconclusive means weak or mixed curves, or effect the other way; inactive means no such curve, though single readings can be large or run the other way.
Measured activity, negative = inhibition, listed per entry for reference.
Quantity Measured: activity, negative = inhibition

structure_string=O=S(O)O quantity_measured="activity, negative = inhibition" measured="5.26% [at 19 µM] (inactive)"
structure_string=O=S(=O)(O)c1cc(S(=O)(=O)O)c2ccc3c(S(=O)(=O)O)cc(S(=O)(=O)O)c4ccc1c2c43 quantity_measured="activity, negative = inhibition" measured="14.4% [at 19 µM] (inactive)"
structure_string=S=C(SSSSSSC(=S)N1CCCCC1)N1CCCCC1 quantity_measured="activity, negative = inhibition" measured="-10.6% [at 19 µM] (inactive)"
structure_string=CCCCCCCCCCCCCCCCCO quantity_measured="activity, negative = inhibition" measured="-5.96% [at 19 µM] (inactive)"
structure_string=CCN1CCN(c2cc(-c3ccc(F)cc3)c3c(n2)CCCCCC3)CC1 quantity_measured="activity, negative = inhibition" measured="9.21% [at 19 µM] (inactive)"
structure_string=COc1cc(C(C)C)c2c(c1)S(=O)(=O)N(COc1cc(=O)n3cccc(OCCN4CCCCC4)c3n1)C2=O quantity_measured="activity, negative = inhibition" measured="1.67% [at 19 µM] (inactive)"
